In this section, each of the sequences is paired with its reported protein stability index.
tested on: Saccharomyces cerevisiae; assay: protein stability index of tFT-peptide fusion (C-terminal peptide) (PSI (0-1 scale)); higher = more stable (slower turnover); conditions: genetic background: wild type; temperature: 30 C;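 further: PSI is a weighted mean of sequencing reads over stability bins, variants kept only with over 10 reads, mCherry proximal and sfGFP distal, peptide attached via GGGS linker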
Measure: protein stability index

ITPLVQRPSSLR ... 0.689
AYRLAFYGCVMR ... 0.514
PPTPPSIPPSPP ... 0.624
PSSPPPPPLSPL ... 0.664
ECNESSACRNHY ... 0.65
IDMGEQTGKMIN ... 0.72
CFCVRTGCSVGV ... 0.663
LADFGREKNSLG ... 0.703
ARKRRRRGHDTE ... 0.725
LVILLLQLLSGT ... 0.518
DRGKGEKGKKAD ... 0.68
PVVKVCRPVFLD ... 0.829
LRSGRCFFVARL ... 0.73
ENCDSAEPGTRV ... 0.676
STSDAFLTFPLQ ... 0.678
FFRWDSKHDILV ... 0.732
SCCLLICIFFIF ... 0.297
CVVRADGVVGIL ... 0.649
SFGSVFGGRWCV ... 0.672

====

Known protein stability index of a selection of sequences
tested on: Saccharomyces cerevisiae; test: protein stability index of tFT-peptide fusion (C-terminal peptide) (PSI (0-1 scale)); higher = more stable (slower turnover); details: genetic background: wild type; temperature: 37 C
Measure: protein stability index

AYSVIPSLALLP ... 0.706
GILILRLILCLF ... 0.24
LEGRFLACRGIC ... 0.325
YFLFLRLVFLFF ... 0.257
SIFWWWLVFILG ... 0.462
AGVRCPLFWLVC ... 0.148
FSVSYFRLVRLC ... 0.0873
VGGSRGARLGVG ... 0.42
VTFWISLVYVLV ... 0.279
LYLGCVLFVLFR ... 0.312
SFFVCAGFWVLC ... 0.456
SPSSLPRPLFLS ... 0.289
WFLLSLSSFVSS ... 0.455
WVFVVWFVFVVG ... 0.356
VFKLGWVLCVLL ... 0.3
LAVVLVWVPGRW ... 0.561
GDINRNTRYLEK ... 0.702
FRFSCLFSLFLS ... 0.24
RGLANLIVIVSS ... 0.392
CIVFVYCLFSCP ... 0.332
VGTIVLTCIEVN ... 0.205
WVSFYLLFFFSF ... 0.5
LFFWVLTVMFVW ... 0.283
EWGLGEIVVKVA ... 0.215
TKGIIKKINIIM ... 0.467
FYSLYLSLVCFN ... 0.256
AFWLFSGIARLA ... 0.501
FFLDRLVIRLIA ... 0.0735
TFLVWSLMAGDR ... 0.459
DQPLWIGVLAYC ... 0.487
LRFVCALGYCVW ... 0.574
TEVGAWLLLCRC ... 0.385
RFFVLSFFFLVS ... 0.384
VRGWLAYLRWII ... 0.303
FLLFSFFFFFFF ... 0.488
DYSVIPSLALLP ... 0.714
VWVAWLGGAILA ... 0.272
TRHIGQYIHKIT ... 0.436
ISHLQCFFVVML ... 0.485
SVFGLLSVCFFY ... 0.549
NLTAIIYTLVVD ... 0.394
